- subject-of-test: glucagon receptor (GCGR) (Homo sapiens)
- Construct: expressed in transfected cells; host or cells: CHO-K1 cells overexpressing GCGR (membrane fractions)
- procedure-details: I125-glucagon binding assay (competition, GCGR membrane fractions)
- experimental-setup: competition with I125-glucagon 0.0625 nM, membrane fractions of GCGR overexpressed CHO-K1 cells
measured-parameter: pIC50
FYI, pIC50 means -log10 of a concentration in mol per litre.

given-smiles: CC[C@H](C)[C@@H](COc1ccc(-c2nnc(-c3ccccc3)o2)cc1)Nc1ccc(C(=O)NCCC(=O)O)cn1
pIC50: 6.15

Considering "CC(C)[C@@H](COc1ccc(-c2cc(Cl)cc(Cl)c2)nc1)Nc1ccc(C(=O)NCCC(=O)O)cc1" , its pIC50 with glucagon receptor (GCGR) (Homo sapiens) was recorded as 6.36

Readout pIC50 for "CC(C)[C@@H](COc1ccc(-c2nc3ccccc3s2)c(F)c1)Nc1ccc(C(=O)NCCC(=O)O)cc1" , test system glucagon receptor (GCGR) (Homo sapiens), was 7.02

Result for "CC[C@H](C)[C@@H](COc1ccc(-c2ccc(C(F)(F)F)cc2F)nc1)Nc1ccc(C(=O)NCCC(=O)O)cc1" , tested on glucagon receptor (GCGR) (Homo sapiens), pIC50: 6.51

The recorded pIC50 with glucagon receptor (GCGR) (Homo sapiens) for "CC(C)(C)[C@@H](COc1ccc(-c2ccc(C(F)(F)F)cc2F)c(F)c1)Nc1ccc(C(=O)NCCC(=O)O)cc1" was 7.09

glucagon receptor (GCGR) (Homo sapiens) data for "CC(C)C[C@@H](COc1ccc(-c2ccc(Cl)cc2Cl)nn1)Nc1ccc(C(=O)NCCC(=O)O)cc1" ; its pIC50: 6.86

The recorded pIC50 with glucagon receptor (GCGR) (Homo sapiens) for "CCCC[C@@H](COc1ccc(-c2cc3ccccc3o2)c(Cl)c1)Nc1ccc(C(=O)NCc2nnn[nH]2)cc1" was 6.83

###

- subject-of-test: glucagon receptor (GCGR) overexpressed CHO-K1 cells or human primary hepatocytes (Homo sapiens)
- Construct: expressed in transfected cells; host or cells: GCGR overexpressed CHO-K1 cells or human primary hepatocytes (endogenous receptor)
- Sequence (P47871 26-477): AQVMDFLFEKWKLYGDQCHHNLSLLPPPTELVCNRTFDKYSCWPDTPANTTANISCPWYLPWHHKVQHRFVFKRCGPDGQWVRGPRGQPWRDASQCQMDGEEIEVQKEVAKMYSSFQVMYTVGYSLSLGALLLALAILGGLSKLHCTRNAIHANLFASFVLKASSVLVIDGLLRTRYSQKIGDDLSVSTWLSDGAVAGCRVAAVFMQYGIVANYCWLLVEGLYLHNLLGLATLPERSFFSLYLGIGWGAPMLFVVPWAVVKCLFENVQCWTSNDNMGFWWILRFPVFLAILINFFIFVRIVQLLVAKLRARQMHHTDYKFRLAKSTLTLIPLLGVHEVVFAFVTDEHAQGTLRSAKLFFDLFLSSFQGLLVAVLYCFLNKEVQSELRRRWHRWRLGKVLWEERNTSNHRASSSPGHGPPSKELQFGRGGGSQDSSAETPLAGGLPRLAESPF
- procedure-details: Glucagon cAMP inhibition assay (Cisbio cAMP Dynamic 2 HTRF)
- Type: cell-based
- experimental-setup: inhibition of glucagon (EC50 concentration) induced cAMP production
measured-parameter: IC50 cAMP (nM)
Write the answer as a number in nM, unit excluded.

compound: CC[C@H](C)[C@@H](COc1cc(C)c(-c2ccc(OC(F)(F)F)cc2)c(C)c1)Nc1ccc(C(=O)NCCC(=O)O)cc1
value-reported: 602

compound: CC(C)[C@@H](COc1cc(Cl)c(-c2cc3ccccc3o2)cc1Cl)Nc1ccc(C(=O)NCCC(=O)O)cc1
value-reported: 115.4

compound: CC(C)[C@@H](COc1ccc(-c2ccc(C(F)(F)F)cc2F)cc1)Nc1ccc(C(=O)NCCS(=O)(=O)O)cc1
value-reported: 3767

compound: CC[C@H](C)[C@@H](COc1ccc(-c2ccc(C(F)(F)F)cc2F)c(F)c1)Nc1ccc(C(=O)NCCC(=O)O)cc1
value-reported: 353.2

Next item in the queue.
IC50 cAMP measured on "CCCC[C@@H](COc1ccc(-c2ccc(Cl)cc2Cl)cc1)Nc1ccc(C(=O)NCCC(=O)O)cc1" = 864.4

###

Recorded IC50 by entry
- subject-of-test: glucagon receptor (GCGR) (Homo sapiens)
- Construct: expressed in transfected cells; host or cells: CHO-K1 cells overexpressing GCGR (membrane fractions)
- procedure-details: I125-glucagon binding assay (competition, GCGR membrane fractions)
// units = nM; emit number, no label

Solved cases (6 shown):
compound: CC[C@H](C)[C@@H](COc1ccc(-c2ccc(C(F)(F)F)cc2)cn1)Nc1ccc(C(=O)NCCC(=O)O)cc1
measurement-unit: nM
value-reported: 376
//
compound: CC(C)[C@@H](COc1ccc(-c2ccc(C(F)(F)F)cc2)cn1)Nc1ccc(C(=O)NC[C@@H](O)C(=O)O)cc1
measurement-unit: nM
value-reported: 3300
//
compound: CC(C)(C)c1ccc(-c2ccc(C[C@@H](Nc3ccc(C(=O)NCCC(=O)O)cc3)C(=O)Nc3ccc(OC(F)(F)F)cc3)cc2)cc1
measurement-unit: nM
value-reported: 45.7
//
compound: CCCOC[C@H](Cc1ccc(-c2ccc(C(F)(F)F)cc2)cc1)Nc1ccc(C(=O)NCCC(=O)O)cc1 [Compound 19-13]
measurement-unit: nM
value-reported: 621
//
compound: CC(C)[C@H](Nc1ccc(C(=O)NCCC(=O)O)cc1)c1nnc(-c2ccc(C(C)(C)C)cc2)o1
measurement-unit: nM
value-reported: 1040
//
compound: CC(C)C[C@@H](Nc1ccc(C(=O)NCCC(=O)O)cc1)C(=O)Nc1ccc(-c2cc3ccccc3o2)cc1
measurement-unit: nM
value-reported: 311

IC50 recorded for this compound, "CCCC[C@@H](COc1nnc(-c2ccc(OC(F)(F)F)cc2)o1)Nc1ccc(C(=O)NCCC(=O)O)cc1" , is 1430

For record "Cc1nc(OC[C@H](CC(C)C)Nc2ccc(C(=O)NCCC(=O)O)cc2)ccc1-c1ccc(Cl)cc1Cl" the listed IC50 is 49

Record "O=C(NCCS(=O)(=O)O)c1ccc(N[C@H](COc2ccc(-c3cc4ccccc4o3)cn2)c2ccc(-c3ccc(C(F)(F)F)cc3)cc2)cc1" . Reported IC50: 100

The recorded IC50 for entry "Cc1c(-c2nnc([C@H](Cc3ccc(-c4ccc(C(F)(F)F)cc4)cc3)Nc3ccc(C(=O)NCCC(=O)O)cc3)o2)oc2ccccc12" equals 2680

Reported IC50 of "C[C@@H](Cc1ccc(-c2ccc(Cl)cc2Cl)cc1)Nc1ccc(C(=O)NCCC(=O)O)cc1" : 6320

###

- subject-of-test: glucagon receptor (GCGR) (Homo sapiens, UniProt P47871)
- Construct: expressed in transfected cells; host or cells: CHO-K1 cells overexpressing GCGR (membrane fractions)
- procedure-details: I125-glucagon binding assay (competition, GCGR membrane fractions)
- experimental-setup: competition with I125-glucagon 0.0625 nM, membrane fractions of GCGR overexpressed CHO-K1 cells
measured-parameter: log10 of IC50 (log10 of the value in nM)
The figures below represent log10 of IC50, where IC50 is stated in nM.

compound: CC(C)[C@@H](COc1ccc(-c2cc3ccccc3o2)c(Cl)c1)Nc1ccc(C(=O)NCCS(=O)(=O)O)cc1
measured-parameter: log10 of IC50
value-reported: 2.92

// log10 of IC50 value for "CCCC[C@@H](COc1ccc(-c2ccc(Cl)cc2Cl)c(Cl)c1)Nc1ccc(C(=O)NCCC(=O)O)cc1" : 1.48

The measured log10 of IC50 associated with "CCCC[C@@H](COc1ccc(-c2nnc(C(F)(F)F)o2)c(F)c1)Nc1ccc(C(=O)NCCC(=O)O)cc1" reads 2.56

# log10 of IC50 (compound: CCC(C)[C@@H](COc1cnc(-c2ccc(Cl)cc2Cl)nc1)Nc1ccc(C(=O)NCCC(=O)O)cc1 (some centres unmarked) ) is 2.53

Consider "CCCC[C@@H](COc1cnc(-c2ccc(C(F)(F)F)cc2Cl)nc1)Nc1ccc(C(=O)NCCC(=O)O)cc1" . Its measured log10 of IC50 is 2.65

Notebook: "CC[C@H](C)[C@@H](COc1ccc(-c2ccc(C(F)(F)F)cc2)c(F)c1)Nc1ccc(C(=O)NCCC(=O)O)cc1" , log10 of IC50 read as 2.40

The recorded log10 of IC50 for entry "CC(C)C[C@@H](COc1ccc(-c2ccc(C(F)(F)F)cc2F)c(F)c1)Nc1ccc(C(=O)NCCC(=O)O)cc1" equals 2.24

Documented log10 of IC50 of "CC[C@H](C)[C@@H](COc1ccc(-c2nnc(C(C)(C)C)o2)cc1)Nc1ccc(C(=O)NCCC(=O)O)cn1" : 3.38

Entry "CC[C@H](C)[C@@H](CSc1ccc(-c2ccc(C(F)(F)F)cc2)cc1)Nc1ccc(C(=O)NCCC(=O)O)cc1" , log10 of IC50 reported as 3.08

Entry "CCCC[C@@H](COc1ccc(-c2ccc(Cl)cc2Cl)nc1)Nc1ccc(C(=O)NCCC(=O)O)cc1" , log10 of IC50 reported as 2.50

Reported log10 of IC50 for "COc1cc(OC[C@@H](Nc2ccc(C(=O)NCCC(=O)O)cn2)C(C)C)ccc1-c1cc2ccccc2o1" was 2.88

# log10 of IC50 of "CC[C@H](C)[C@@H](COc1cc(Cl)c(-c2ccc(C(F)(F)F)cc2F)cc1Cl)Nc1ccc(C(=O)NCCC(=O)O)cc1" = 2.47

"CCCC[C@@H](COc1ccc(-c2cc3ccccc3o2)c(Cl)c1)Nc1ccc(C(=O)NCCC(=O)O)cc1" has a reported log10 of IC50 of 1.30

Looking up "CCCC[C@@H](COc1ccc(-c2nnc(-c3ccccc3)o2)cc1)Nc1ccc(C(=O)NCCC(=O)O)cc1" , I found its log10 of IC50 recorded as 2.85
